The origin of these recorded values is paper PMC3311629.

Record: pKi reported on UniProtKB P00735.
pKi: −log10 of the molar value. Square brackets hold non-standard residues; d marks the D form. Peptide text beside a SMILES is read from it. 2Thi = N[C@@H](Cc1cccs1)C(=O)O
METRIC_NAME: pKi

INSERT INTO measurements (molecule, assayed_system, test_value) VALUES
  ('N=C(N)NCCC[C@H](NC(=O)[C@@H](CCCNC(=N)N)NC(=O)[C@@H]1CCCN1C(=O)[C@H](N)Cc1ccccc1)C(N)=O [Peptide 4, D-Phe-Pro-D-Arg-Arg] (H-[dF]P[dR]R-NH2)', 'UniProtKB P00735', 4.04),
  ('N=C(N)NCCC[C@@H](NC(=O)[C@@H]1CCCN1C(=O)[C@H](N)Cc1ccccc1)C(=O)N[C@@H](Cc1ccc(O)cc1)C(N)=O [Peptide 12, D-Phe-Pro-D-Arg-Tyr] (H-[dF]P[dR]Y-NH2)', 'UniProtKB P00735', 4.30),
  ('C[C@@H](O)[C@H](NC(=O)[C@@H](CCCNC(=N)N)NC(=O)[C@@H]1CCCN1C(=O)[C@H](N)Cc1ccccc1)C(N)=O [Peptide 15, D-Phe-Pro-D-Arg-Thr] (H-[dF]P[dR]T-NH2)', 'UniProtKB P00735', 4.90),
  ('N=C(N)NCCC[C@@H](NC(=O)[C@@H]1CCCN1C(=O)[C@H](N)Cc1ccccc1)C(=O)N[C@H](CO)C(N)=O [Peptide 18, D-Phe-Pro-D-Arg-D-Ser] (H-[dF]P[dR][dS]-NH2)', 'UniProtKB P00735', 4.91),
  ('N=C(N)NCCC[C@@H](NC(=O)[C@@H]1CCCN1C(=O)[C@H](N)Cc1ccccc1)C(=O)N[C@@H](CCCCN)C(N)=O [Peptide 5, D-Phe-Pro-D-Arg-Lys] (H-[dF]P[dR]K-NH2)', 'UniProtKB P00735', 4.18),
  ('N=C(N)NCCC[C@@H](NC(=O)[C@@H]1CCCN1C(=O)[C@H](N)Cc1ccccc1)C(=O)N[C@@H](Cc1cccs1)C(N)=O [Peptide 27, D-Phe-Pro-D-Arg-Thi] (H-[dF]P[dR][2Thi]-NH2)', 'UniProtKB P00735', 5.09),
  ('CC(C)[C@@H](NC(=O)[C@@H](CCCNC(=N)N)NC(=O)[C@@H]1CCCN1C(=O)[C@H](N)Cc1ccccc1)C(N)=O [Peptide 14, D-Phe-Pro-D-Arg-D-Val] (H-[dF]P[dR][dV]-NH2)', 'UniProtKB P00735', 5.66),
  ('N=C(N)NCCC[C@@H](NC(=O)[C@@H]1CCCN1C(=O)[C@H](N)Cc1ccccc1)C(=O)N[C@@H](CO)C(N)=O [Peptide 17, D-Phe-Pro-D-Arg-Ser] (H-[dF]P[dR]S-NH2)', 'UniProtKB P00735', 4.77),
  ('N=C(N)NCCC[C@@H](NC(=O)[C@@H]1CCCN1C(=O)[C@H](N)Cc1ccccc1)C(=O)N[C@@H](Cc1c[nH]c2ccccc12)C(N)=O [Peptide 11, D-Phe-Pro-D-Arg-Trp] (H-[dF]P[dR]W-NH2)', 'UniProtKB P00735', 4.18),
  ('CC[C@@H](C)[C@@H](NC(=O)[C@@H](CCCNC(=N)N)NC(=O)[C@@H]1CCCN1C(=O)[C@H](N)Cc1ccccc1)C(N)=O [Peptide 24, D-Phe-Pro-D-Arg-D-Ile] (H-[dF]P[dR][dI]-NH2)', 'UniProtKB P00735', 5.13);
